- EXPERIMENT DESCRIPTION: Luciferase activity of purified RLuc mutants (light output integrated over 10 s, luminometer)
- Type: biochemical
- MEASUREMENT PARAMETERS: coelenterazine-cp; relative to native enzyme
- Method: Luminometer Calibration: Light measurements were made using a Turner 20/20 and later a Turner 20/20n luminometer (Turner Designs, Sunnyvale, Calif.). […] Characterization of Renilla Luciferase Mutants: Luciferase activity was measured by adding 1 μl of sample (diluted as necessary in EB containing 1% HSA) to 100 μl room temperature 100 mM sodium phosphate buffer (pH 7), manually adding 1 μl of 0.5 μg/μl coelenterazine or analog, manually mixing, and reading for 10 s in a luminometer. […]
Property: Activity (relative to RLuc) cp; scope: individual molecules
Could you respond with only the numeric value?

Record excerpt, results attached:
{"MOLECULE": "F116L/C124A: RLuc mutant F116L/C124A (protein) MASKVYDPEQRKRMITGPQWWARCKQMNVLDSFINYYDSEKHAENAVIFLHGNAASSYLWRHVVPHIEPVARCIIPDLIGMGKSGKSGNGSYRLLDHYKYLTAWFELLNLPKKIILVGHDWGAALAFHYSYEHQDKIKAIVHAESVVDVIESWDEWPDIEEDIALIKSEEGEKMVLENNFFVETMLPSKIMRKLEPEEFAAYLEPFKEKGEVRRPTLSWPREIPLVKGGKPDVVQIVRNYNAYLRASDDLPKMFIESDPGFFSNAIVEGAKKFPNTEFVKVKGLHFSQEDAPDEMGKYIKSFVERVLKNEQ", "EXPERIMENTAL READOUT": "Activity (relative to RLuc) cp", "EXPERIMENTAL VALUE": 1.3}
{"MOLECULE": "C124A/M191L: RLuc mutant C124A/M191L (protein) MASKVYDPEQRKRMITGPQWWARCKQMNVLDSFINYYDSEKHAENAVIFLHGNAASSYLWRHVVPHIEPVARCIIPDLIGMGKSGKSGNGSYRLLDHYKYLTAWFELLNLPKKIIFVGHDWGAALAFHYSYEHQDKIKAIVHAESVVDVIESWDEWPDIEEDIALIKSEEGEKMVLENNFFVETMLPSKILRKLEPEEFAAYLEPFKEKGEVRRPTLSWPREIPLVKGGKPDVVQIVRNYNAYLRASDDLPKMFIESDPGFFSNAIVEGAKKFPNTEFVKVKGLHFSQEDAPDEMGKYIKSFVERVLKNEQ", "EXPERIMENTAL READOUT": "Activity (relative to RLuc) cp", "EXPERIMENTAL VALUE": 0.97}

Next:
QUERY: Report Activity (relative to RLuc) cp, nothing else, for this molecule: F33R/I34M/C124A: RLuc mutant F33R/I34M/C124A (protein) MASKVYDPEQRKRMITGPQWWARCKQMNVLDSRMNYYDSEKHAENAVIFLHGNAASSYLWRHVVPHIEPVARCIIPDLIGMGKSGKSGNGSYRLLDHYKYLTAWFELLNLPKKIIFVGHDWGAALAFHYSYEHQDKIKAIVHAESVVDVIESWDEWPDIEEDIALIKSEEGEKMVLENNFFVETMLPSKIMRKLEPEEFAAYLEPFKEKGEVRRPTLSWPREIPLVKGGKPDVVQIVRNYNAYLRASDDLPKMFIESDPGFFSNAIVEGAKKFPNTEFVKVKGLHFSQEDAPDEMGKYIKSFVERVLKNEQ
RESULT: 0.16

meta.source: patent US7842469B2
